Recorded values, source PubChem BioAssay (NCI).

# TGI listing for each entry below
Tested on: COLO 205 colon
Test: NCI tumour cell line growth inhibition, 48 h

# compound, qual, TGI (µM)
data = [
    ("O=C([O][Hg][CH2]C1OCCOC1[CH2][Hg][O]C(=O)c1ccccc1)c1ccccc1 (stereo not given)", "=", 3.27),
    ("CCOC(=O)CCSc1nc2ccc(I)cc2c(=O)n1Cc1ccccc1", "=", 26.9),
    ("COc1ccc2c(c1)oc(=O)c1cc(OC)ccc12", ">", 100),
    ("Cc1ccc([N+](=O)[O-])cc1S(=O)(=O)Nc1ccc(C2=NOC(c3cccs3)C2)cc1 (stereo not given)", ">", 100),
    ("CC1(C)CC[C@]2(C(=O)O)CC[C@]3(C)C(=CC[C@@H]4[C@@]5(C)C[C@H](O)[C@H](O)[C@@](C)(C(=O)O)[C@@H]5CC[C@]43C)[C@@H]2C1", ">", 100),
]
